Source listed as patent US12286437B2.

Target: CYP3A4 (Homo sapiens, UniProt P08684)
Construct: Pooled human microsomes and selective CYP probe substrates were used; from tissue; host or cells: pooled human liver microsomes
Sequence (P08684 whole entry): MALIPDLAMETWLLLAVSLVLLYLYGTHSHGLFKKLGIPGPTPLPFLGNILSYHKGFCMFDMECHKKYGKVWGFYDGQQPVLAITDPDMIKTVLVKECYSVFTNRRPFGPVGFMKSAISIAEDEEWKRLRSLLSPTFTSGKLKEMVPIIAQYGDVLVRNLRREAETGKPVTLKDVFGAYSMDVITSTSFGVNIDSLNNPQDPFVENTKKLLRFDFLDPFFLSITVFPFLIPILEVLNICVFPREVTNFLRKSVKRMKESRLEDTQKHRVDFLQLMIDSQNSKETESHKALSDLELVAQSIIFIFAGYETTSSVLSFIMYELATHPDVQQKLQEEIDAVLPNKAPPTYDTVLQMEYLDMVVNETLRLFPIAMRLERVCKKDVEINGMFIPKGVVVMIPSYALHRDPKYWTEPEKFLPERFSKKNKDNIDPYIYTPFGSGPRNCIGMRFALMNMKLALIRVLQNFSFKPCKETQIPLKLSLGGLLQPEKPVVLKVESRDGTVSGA
Assay: Time-dependent inhibition of CYP3A4 in human liver microsomes (testosterone and midazolam probes)
Assay type: in vitro ADME
Settings: pooled human liver microsomes; CYP3A4-M (midazolam probe substrate), 25 μM, human liver microsomes, time zero; read-out: % Activity NADPH T0
For each entry below, report its activity at 0 min, 25 µM value.
# value in %; strip the unit string

Ask | Suppose we examine the molecule CC(C)N1CC(=O)N(Cc2ccc(C(F)(F)F)cc2)C2(CN(c3cccnn3)C2)C1=O [Compound 13] ; what activity at 0 min, 25 µM value has been reported?
Reply | 87

Ask | Also need CC(C)N1CC(=O)N(Cc2ccc(Cl)c(F)c2)C2(CN(c3cccnn3)C2)C1=O [Compound 8] , thanks.
Reply | 100

Ask | Also need C[C@H]1CC[C@H](N2CC(=O)N(Cc3ccc(F)c(F)c3)C3(CN(C(N)=O)C3)C2=O)CC1 [Compound 5] , thanks.
Reply | 75

Ask | Also need C[C@H]1CC[C@H](N2CC(=O)N(Cc3ccc(F)c(Cl)c3)C3(CN(C(N)=O)C3)C2=O)CC1 [Compound 7] , thanks.
Reply | 100

Ask | Also need C[C@H]1CC[C@H](N2CC(=O)N(Cc3ccc(Cl)cc3)C3(CN(C(N)=O)C3)C2=O)CC1 [Compound 18] , thanks.
Reply | 125

Ask | Also need Cc1cc(CN2C(=O)CN([C@H]3CC[C@H](C)CC3)C(=O)C23CN(C(N)=O)C3)ccc1F [Compound 6] , thanks.
Reply | 89

----------
Assay: Projected single-dose CL and Vss values in humans (allometric scaling of mouse, rat, dog, monkey IV PK)
Settings: human, projected by allometric scaling from single-dose IV PK
Short version: Projected t½ at least 30 h is Y, less is N.

Ask | Identify whether the reported Projected t½ of the following compound is 30 h or greater: CC(C)N1CC(=O)N(Cc2ccc(C(F)(F)F)cc2)C2(CN(c3cccnn3)C2)C1=O
Reply | N

Ask | Also need CC(=O)N1CC2(C1)C(=O)N(c1ccc(C#N)cc1F)CC(=O)N2Cc1ccc(C(F)(F)F)cc1 , thanks.
Reply | Y

Ask | Also need O=C1[C@H](C2COC2)N(Cc2ccc(C(F)(F)F)cc2)C(=O)CN1c1ncc(Cl)cc1F [Comparator C, reference compound] , thanks.
Reply | Y

Ask | Also need C[C@H]1CC[C@H](N2CC(=O)N(Cc3ccc(F)c(F)c3)C3(CN(C=O)C3)C2=O)CC1 , thanks.
Reply | N

Ask | Also need O=CN1CC2(C1)C(=O)N(c1ccc(F)cc1F)CC(=O)N2Cc1ccc(Cl)cc1 [Comparator A, reference compound] , thanks.
Reply | Y

Ask | Also need C[C@H]1CC[C@H](N2CC(=O)N(Cc3ccc(Cl)cc3)C3(CN(C(N)=O)C3)C2=O)CC1 , thanks.
Reply | N

Ask | Also need O=CN1CC2(C1)C(=O)N([C@H]1CC[C@H](C(F)F)CC1)CC(=O)N2Cc1ccc(C(F)(F)F)cc1 , thanks.
Reply | Y

----------
For each entry below, report its (% Activity NADPH T0)/(% Activity NADPH T30) value.
Target: CYP2C19 (Homo sapiens, UniProt P33261)
Construct: Pooled human microsomes and selective CYP probe substrates were used; from tissue; host or cells: pooled human liver microsomes
Sequence (P33261 whole entry): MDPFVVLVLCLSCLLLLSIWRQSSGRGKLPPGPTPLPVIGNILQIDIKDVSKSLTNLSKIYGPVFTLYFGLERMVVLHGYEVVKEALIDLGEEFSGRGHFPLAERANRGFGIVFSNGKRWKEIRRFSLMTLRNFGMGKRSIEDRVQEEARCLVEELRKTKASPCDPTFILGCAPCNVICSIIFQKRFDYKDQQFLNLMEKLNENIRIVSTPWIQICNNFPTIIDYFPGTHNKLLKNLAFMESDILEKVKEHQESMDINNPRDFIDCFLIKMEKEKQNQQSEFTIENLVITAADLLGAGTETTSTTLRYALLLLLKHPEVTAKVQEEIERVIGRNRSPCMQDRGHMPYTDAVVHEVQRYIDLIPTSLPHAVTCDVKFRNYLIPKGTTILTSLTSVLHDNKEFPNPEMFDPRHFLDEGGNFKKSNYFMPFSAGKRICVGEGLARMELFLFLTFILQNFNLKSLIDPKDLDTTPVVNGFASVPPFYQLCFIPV
Experiment: Time-dependent inhibition of CYP2C19 in human liver microsomes
Assay type: in vitro ADME
Settings: CYP2C19, 50 μM, fold change
The reply should be a number, written without any unit.

Ask | Suppose we examine the molecule C[C@H]1CC[C@H](N2CC(=O)N(Cc3ccc(Cl)cc3)C3(CN(C(N)=O)C3)C2=O)CC1 ; what (% Activity NADPH T0)/(% Activity NADPH T30) value has been reported?
Reply | 1.1

Ask | Also need Cc1cc(CN2C(=O)CN([C@H]3CC[C@H](C)CC3)C(=O)C23CN(C(N)=O)C3)ccc1F , thanks.
Reply | 1.1

Ask | Also need C[C@H]1CC[C@H](N2CC(=O)N(Cc3ccc(F)c(F)c3)C3(CN(C=O)C3)C2=O)CC1 , thanks.
Reply | 1.1

Ask | Also need CC(C)N1CC(=O)N(Cc2ccc(Cl)c(F)c2)C2(CN(c3cccnn3)C2)C1=O , thanks.
Reply | 1.0

Ask | Also need C[C@H]1CC[C@H](N2CC(=O)N(Cc3ccc(F)c(F)c3)C3(CN(C(N)=O)C3)C2=O)CC1 , thanks.
Reply | 1.3

Ask | Also need C[C@H]1CC[C@H](N2CC(=O)N(Cc3ccc(F)c(Cl)c3)C3(CN(C(N)=O)C3)C2=O)CC1 , thanks.
Reply | 1.0

Ask | Also need CC(C)N1CC(=O)N(Cc2ccc(C(F)(F)F)cc2)C2(CN(c3cccnn3)C2)C1=O , thanks.
Reply | 0.9
